Details: buffer; pH 7.4; 200.0 µM

- molecule: "CN(CCN1CCOCC1)Cc1nc(-c2ccccc2)no1"
  solubility kinetic: "> 45.4 µg/mL"
- molecule: "COc1ccc(C(=O)CSc2[nH]c(=O)cc(C(F)(F)F)c2C#N)cc1"
  solubility kinetic: "> 55.2 µg/mL"
- molecule: "CCCCc1c(O)nc(SCC(=O)N2CCCCC2)[nH]c1=O"
  solubility kinetic: "> 48.8 µg/mL"
- molecule: "Cc1nn(CC(=O)N(C)C2(C#N)CCCCC2)c(C)c1[N+](=O)[O-]"
  solubility kinetic: "> 47.9 µg/mL"
- molecule: "Cc1cc(C)cc(C(=O)Oc2cc(C)[nH]c(=O)c2[N+](=O)[O-])c1"
  solubility kinetic: "> 45.3 µg/mL"
- molecule: "NCC1(CC(=O)O)CCCCC1"
  solubility kinetic: "> 25.7 µg/mL"
- molecule: "CS(=O)(=O)N(CC(=O)N1CCCC1)c1ccccc1F"
  solubility kinetic: "> 45.1 µg/mL"
- molecule: "Cc1ccc(NC(=O)c2cc(=O)[nH]c3ccccc23)cc1C"
  solubility kinetic: "< 0.3 µg/mL"
- molecule: "CC(=O)NC(CC(=O)N1CCCC1)c1ccccc1 (centres undefined)"
  solubility kinetic: "> 39.1 µg/mL"
- molecule: "Cc1ccc(OCc2cnc(Cl)s2)c(C)c1"
  solubility kinetic: "< 0.5 µg/mL"
- molecule: "CC(=O)NC(CC(=O)NCCOc1ccccc1F)c1ccccc1 (centres undefined)"
  solubility kinetic: "> 51.7 µg/mL"
- molecule: "CSc1ccccc1NC(=O)Nc1cccc2ccccc12"
  solubility kinetic: "< 0.3 µg/mL"
- molecule: "CC(C)C[C@H](NC(=O)NC1CCCc2ccccc21)C(=O)O (some centres undefined)"
  solubility kinetic: "> 45.7 µg/mL"
- molecule: "O=C(COC(=O)Cc1ccc(S(=O)(=O)N2CCOCC2)s1)Nc1ccccc1Cl"
  solubility kinetic: "> 68.8 µg/mL"
- molecule: "Cc1ccccc1NC(=O)COC(=O)c1cccnc1"
  solubility kinetic: "> 40.5 µg/mL"
- molecule: "CCOC(=O)N1CCN(C(=O)COC(=O)c2ccc(O)cc2O)CC1"
  solubility kinetic: "> 52.9 µg/mL"
- molecule: "CC1=Nc2ccccc2N=C(NC(=O)/C=C/C(=O)O)C1c1ccccc1 (centres undefined)"
  solubility kinetic: "> 52.1 µg/mL"
- molecule: "CNC(=O)COc1ccc(Cl)c2cccnc12"
  solubility kinetic: "> 37.6 µg/mL"
- molecule: "CN1CC(=O)N=C1N.Cl"
  solubility kinetic: "> 22.4 µg/mL"
- molecule: "COC(=O)c1ccc(CNC(=O)CCC(=O)N2CCOCC2)cc1"
  solubility kinetic: "> 50.2 µg/mL"
- molecule: "c1ccc2c3c([nH]c2c1)CNCC3"
  solubility kinetic: "> 25.8 µg/mL"
- molecule: "COc1cc(CC(=O)OCC(=O)c2ccc[nH]2)cc(OC)c1OC"
  solubility kinetic: "> 50 µg/mL"
- molecule: "Cc1ccc(C)c(NC(=O)C(CC(=O)O)Cc2ccccc2)c1 (centres undefined)"
  solubility kinetic: "> 46.7 µg/mL"
- molecule: "CSc1ncccc1C(=O)OCC(=O)N1CCN(C(=O)c2ccco2)CC1"
  solubility kinetic: "> 58.4 µg/mL"
